These data points were gathered from the RNAGym collection of RNA variant scans (doi:10.1021/acssynbio.7b00057).

B1: Pistol ribozyme (parent)
chain: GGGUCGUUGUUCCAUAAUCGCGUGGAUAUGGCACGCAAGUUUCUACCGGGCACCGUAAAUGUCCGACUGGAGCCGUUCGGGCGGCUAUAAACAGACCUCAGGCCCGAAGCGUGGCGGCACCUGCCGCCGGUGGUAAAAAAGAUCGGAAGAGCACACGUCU

variants of: B1; test: aptazyme ON/OFF ratio, guanine; higher = stronger switching; co-transcriptional cleavage with and without guanine
aptazyme ON/OFF ratio: recorded values
observation_type: aptazyme ON/OFF ratio

mutant_name="U7A U8A G9U U10C U11G C12U C13U" test_result=1.22
mutant_name="U8A U10A U11A C12G C13G" test_result=1.18
mutant_name="U7A U8G G9U U10A U11G C12U C13U" test_result=1.18
mutant_name="U7A U8C G9A U10C U11A C13A" test_result=1.18
mutant_name="U7G U8G G9A U10G U11C C12G C13U" test_result=1.28
mutant_name="U7C G9U U10C U11G C12G" test_result=1.1
mutant_name="U7C U8C U10G C13G" test_result=1.08
mutant_name="U7C U8A U11G C12G C13A" test_result=1.1
mutant_name="U8G U10A U11G C12G C13G" test_result=1.14
mutant_name="U7A U8G G9U U10G U11A C12G C13A" test_result=1.13
mutant_name="U7A U8G G9A C13U" test_result=1.39
mutant_name="U7C U8A U10G U11G C12U" test_result=1.28
mutant_name="U8G G9U U10A U11G C13U" test_result=1.04
mutant_name="U8G U10A U11G C12U" test_result=1.23
mutant_name="U8A G9C U10G U11A C12G C13U" test_result=1.15
mutant_name="G9A U11C C12G" test_result=1.45
mutant_name="U7G U8G G9U U11G C12A C13U" test_result=1.16
mutant_name="U8C G9A U10A U11C C12A" test_result=1.25
mutant_name="U7G G9U U10G C12U C13U" test_result=1.25
mutant_name="U7A U8A G9U U10C U11A C12A C13G" test_result=1.14
mutant_name="U8G G9A U10A U11C C13A" test_result=1.08
mutant_name="U7C U8G G9U C12G C13U" test_result=1.28
